Would you mind telling me the reported DC50 of each entry?
- Target System: ferroportin (Homo sapiens)
- Sequence (Q9NP59 whole entry): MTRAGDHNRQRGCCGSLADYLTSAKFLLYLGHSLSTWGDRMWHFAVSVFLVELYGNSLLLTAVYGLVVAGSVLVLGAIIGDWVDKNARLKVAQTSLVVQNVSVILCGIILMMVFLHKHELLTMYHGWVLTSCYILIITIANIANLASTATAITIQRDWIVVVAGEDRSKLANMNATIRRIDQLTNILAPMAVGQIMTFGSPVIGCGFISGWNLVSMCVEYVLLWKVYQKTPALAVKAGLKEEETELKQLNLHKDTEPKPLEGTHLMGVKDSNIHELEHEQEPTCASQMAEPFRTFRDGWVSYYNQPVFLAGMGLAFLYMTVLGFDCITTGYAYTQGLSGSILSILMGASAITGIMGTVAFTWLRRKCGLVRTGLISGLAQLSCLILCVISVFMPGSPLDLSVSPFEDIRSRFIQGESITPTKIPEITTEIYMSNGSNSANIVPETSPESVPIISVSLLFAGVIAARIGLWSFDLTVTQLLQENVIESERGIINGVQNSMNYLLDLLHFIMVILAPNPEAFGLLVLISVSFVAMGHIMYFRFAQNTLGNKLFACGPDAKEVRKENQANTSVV
- Assay Comment: FPN activity assay: ferroportin-GFP internalization/degradation in HEK293 cells
- Format: cell-based
- Set-up: expressed in transfected cells
- Condition Summary: Table 6E; ferroportin-GFP internalization/degradation, at least 18 hours incubation; read-out: FPN IC50
Positions of bridges follow the written chain, without caps; N, C: chain ends. Non-standard residues stand in square brackets, D forms with d. Residues, ends and D or L forms follow the SMILES beside them. Groups on a side chain read outwards from the residue. *: point of attachment. X1 = C[N+](C)(CCNC(=O)CCCCCCCCCCCCCCCCC(=O)O)CC(=O)*; C18 diacid = O=C(O)CCCCCCCCCCCCCCCCC(=O)*; dDip = N[C@@H](C(=O)O)C(c1ccccc1)c1ccccc1; Lys(Me3) = C[N+](C)(C)CCCC[C@H](N)C(=O)O; Dip = N[C@H](C(=O)O)C(c1ccccc1)c1ccccc1; Pro(3R-OH) = O=C(O)[C@H]1NCC[C@H]1O; Palmitoyl = CCCCCCCCCCCCCCCC(=O)*; NMeF = CN[C@@H](Cc1ccccc1)C(=O)O; NMeT = CN[C@H](C(=O)O)[C@@H](C)O; X3 = CCCCCCCCCCCCCCCC(=O)NCCC*; NMeK = CN[C@@H](CCCCN)C(=O)O; Isovaleryl = CC(C)CC(=O)*; hCys = N[C@@H](CCS)C(=O)O; Dap = NC[C@H](N)C(=O)O; Ahx = NCCCCCC(=O)O

// query Lab note: record DC50 of COC(=O)CC[C@H](NC(=O)CC(C)C)C(=O)N[C@@H](CO)C(=O)N[C@@H](Cc1c[nH]cn1)C(=O)N(C)[C@@H](Cc1ccccc1)C(=O)N1CCC[C@H]1C(=O)N[C@H]1CSSC[C@@H](C(=O)N(C)[C@@H](CCCCNC(=O)CCCCCNC(=O)C[N+](C)(C)CCNC(=O)CCCCCCCCCCCCCCCCC(=O)O)C(=O)N[C@H](C(=O)N[C@H](CCCCN)C(N)=O)C(c2ccccc2)c2ccccc2)NC1=O [compound 148] (Isovaleryl-E(OMe)SH[NMeF]PCC[NMeK]([Ahx-X1])[Dip][dK]-NH2; disulfide 6-7) tested on ferroportin (Homo sapiens).
// result > 500 nM

// query Lab note: record DC50 of CC(C)CC(=O)N[C@@H](CCC(=O)O)C(=O)N[C@H](C(=O)N[C@@H](Cc1c[nH]cn1)C(=O)N[C@H](C(=O)N1CCC[C@H]1C(=O)N[C@H]1CSSC[C@@H](C(=O)N[C@@H](CCCC[N+](C)(C)C)C(=O)N[C@@H](C(N)=O)C(c2ccccc2)c2ccccc2)NC1=O)C(c1ccccc1)c1ccccc1)[C@@H](C)O [compound 140] (Isovaleryl-ETH[Dip]PCC[Lys(Me3)][dDip]-NH2; disulfide 6-7) tested on ferroportin (Homo sapiens).
// result 10 to 100 nM

// query Lab note: record DC50 of COC(=O)CC[C@H](NC(=O)CC(C)C)C(=O)N[C@H](C(=O)N[C@@H](Cc1c[nH]cn1)C(=O)N[C@H](C(=O)N1CCC[C@H]1C(=O)N[C@H]1CSSC[C@@H](C(=O)N(C)[C@@H](CCCCNC(=O)CCCCCNC(=O)[C@H](CN)NC(=O)CCCCCCCCCCCCCCCCC(=O)O)C(=O)N[C@H](C(=O)N[C@H](CCCCN)C(N)=O)C(c2ccccc2)c2ccccc2)NC1=O)C(c1ccccc1)c1ccccc1)[C@@H](C)O [compound 207] (Isovaleryl-E(OMe)TH[Dip]PCC[NMeK]([Ahx-Dap-C18 diacid])[Dip][dK]-NH2; disulfide 6-7) tested on ferroportin (Homo sapiens).
// result 1 to 10 nM

// query Lab note: record DC50 of COC(=O)CC[C@H](NC(=O)CC(C)C)C(=O)N(C)[C@H](C(=O)N[C@@H](Cc1c[nH]cn1)C(=O)N[C@H](C(=O)N1CCC[C@H]1C(=O)N[C@H]1CSSC[C@@H](C(=O)N(C)[C@@H](CCCCNC(=O)C[N+](C)(C)CCNC(=O)CCCCCCCCCCCCCCCCC(=O)O)C(=O)N(C)[C@@H](Cc2ccccc2)C(N)=O)NC1=O)C(c1ccccc1)c1ccccc1)[C@@H](C)O [compound 185] (Isovaleryl-E(OMe)[NMeT]H[Dip]PCC[NMeK](X1)[NMeF]-NH2; disulfide 6-7) tested on ferroportin (Homo sapiens).
// result > 500 nM

// query Lab note: record DC50 of CCCCCCCCCCCCCCCC(=O)NCCCCCC(=O)NCCCC[C@@H](C(=O)N[C@H](C(=O)N[C@H](CCCCN)C(N)=O)C(c1ccccc1)c1ccccc1)N(C)C(=O)[C@@H]1CSSC[C@H](NC(=O)[C@@H]2CCCN2C(=O)[C@@H](NC(=O)[C@H](Cc2cnc[nH]2)NC(=O)[C@@H](NC(=O)[C@H](CCC(=O)O)NC(=O)CC(C)C)[C@@H](C)O)C(c2ccccc2)c2ccccc2)C(=O)N1 [compound 196] (Isovaleryl-ETH[Dip]PCC[NMeK]([Ahx-Palmitoyl])[Dip][dK]-NH2; disulfide 6-7) tested on ferroportin (Homo sapiens).
// result 1 to 10 nM

// query Lab note: record DC50 of CCCCCCCCCCCCCCCC(=O)NCCCSCC[C@H](NC(=O)[C@@H]1CSSC[C@H](NC(=O)[C@@H]2CCCN2C(=O)[C@@H](NC(=O)[C@H](Cc2cnc[nH]2)NC(=O)[C@@H](NC(=O)[C@H](CCC(=O)O)NC(=O)CC(C)C)[C@@H](C)O)C(c2ccccc2)c2ccccc2)C(=O)N1)C(=O)N[C@H](C(=O)N[C@H](CCCCN)C(N)=O)C(c1ccccc1)c1ccccc1 [compound 162] (Isovaleryl-ETH[Dip]PCC[hCys](X3)[Dip][dK]-NH2; disulfide 6-7) tested on ferroportin (Homo sapiens).
// result 10 to 100 nM

// query Lab note: record DC50 of CCCCCCCCCCCCCCCC(=O)NCCCCCC(=O)NCCCC[C@@H](C(=O)N[C@H](C(=O)N[C@H](CCCCN)C(N)=O)C(c1ccccc1)c1ccccc1)N(C)C(=O)[C@@H]1CSSC[C@H](NC(=O)[C@@H]2CCCN2C(=O)[C@@H](NC(=O)[C@H](Cc2c[nH]cn2)NC(=O)[C@@H]2[C@H](O)CCN2C(=O)[C@H](CCC(=O)O)NC(=O)CC(C)C)C(c2ccccc2)c2ccccc2)C(=O)N1 [compound 174] (Isovaleryl-E[Pro(3R-OH)]H[Dip]PCC[NMeK]([Ahx-Palmitoyl])[Dip][dK]-NH2; disulfide 6-7) tested on ferroportin (Homo sapiens).
// result 10 to 100 nM

// query Lab note: record DC50 of COC(=O)CC[C@H](NC(=O)CC(C)C)C(=O)N[C@H](C(=O)N[C@@H](Cc1c[nH]cn1)C(=O)N[C@H](C(=O)N1CCC[C@H]1C(=O)N[C@H]1CSSC[C@@H](C(=O)N(C)[C@@H](CCCCNC(=O)[C@H](CN)NC(=O)CCCCCCCCCCCCCCCCC(=O)O)C(=O)N[C@H](C(=O)N[C@H](CCCCN)C(N)=O)C(c2ccccc2)c2ccccc2)NC1=O)C(c1ccccc1)c1ccccc1)[C@@H](C)O [compound 206] (Isovaleryl-E(OMe)TH[Dip]PCC[NMeK]([Dap-C18 diacid])[Dip][dK]-NH2; disulfide 6-7) tested on ferroportin (Homo sapiens).
// result 10 to 100 nM
